molecular target: T1, recombinant human GM-CSF (human, UniProt P04141 18-144); assay: Biacore
T1 construct: also called rhGM-CSF; CSF2
T1 sequence (P04141 18-144 limits assumed): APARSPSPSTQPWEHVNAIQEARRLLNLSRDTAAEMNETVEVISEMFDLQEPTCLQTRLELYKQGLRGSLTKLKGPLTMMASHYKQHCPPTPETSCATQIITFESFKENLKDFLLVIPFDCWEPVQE
measure-name: Ka (M⁻¹)
Give bare numbers, in M⁻¹.

Worked set:
1D2 SDR mutant HY103N (antibody, IgG1, V domains shown, also called X6 N) VH: QVQLVQSGAEVKKPGASVKVSCEASGYTFTDKYLHWVRQAPGQGLEWMAWINPKSGGTFYAQNFKGRVTVTRDTSINTAYLELTSLRLDDTSTYYCARGRDYNDQGAADLWGQGTMVTVSS VL: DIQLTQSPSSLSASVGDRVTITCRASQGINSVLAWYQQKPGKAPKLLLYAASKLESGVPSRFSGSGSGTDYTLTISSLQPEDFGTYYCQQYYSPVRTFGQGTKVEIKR : 2.5e+09
1D2 SDR mutant K54G/V32R (antibody, IgG1, V domains shown, also called 54G/32R) VH: QVQLVQSGAEVKKPGASVKVSCEASGYTFTDKYLHWVRQAPGQGLEWMAWINPGSGGTFYAQNFKGRVTVTRDTSINTAYLELTSLRLDDTSTYYCARGRDYYDQGAADLWGQGTMVTVSS VL: DIQLTQSPSSLSASVGDRVTITCRASQGINSRLAWYQQKPGKAPKLLLYAASKLESGVPSRFSGSGSGTDYTLTISSLQPEDFGTYYCQQYYSPVRTFGQGTKVEIKR : 5.23e+08
1D2 SDR mutant Y103N/V32R (antibody, IgG1, V domains shown) VH: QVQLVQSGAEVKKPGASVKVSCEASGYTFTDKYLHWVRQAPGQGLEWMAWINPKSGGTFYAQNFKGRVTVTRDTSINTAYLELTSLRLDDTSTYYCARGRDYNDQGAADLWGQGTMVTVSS VL: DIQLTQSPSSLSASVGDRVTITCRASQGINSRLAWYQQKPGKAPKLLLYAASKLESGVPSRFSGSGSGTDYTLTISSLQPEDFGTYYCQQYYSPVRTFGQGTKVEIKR : 2.37e+08
1D2 SDR mutant HY103R (antibody, IgG1, V domains shown, also called X6 R) VH: QVQLVQSGAEVKKPGASVKVSCEASGYTFTDKYLHWVRQAPGQGLEWMAWINPKSGGTFYAQNFKGRVTVTRDTSINTAYLELTSLRLDDTSTYYCARGRDYRDQGAADLWGQGTMVTVSS VL: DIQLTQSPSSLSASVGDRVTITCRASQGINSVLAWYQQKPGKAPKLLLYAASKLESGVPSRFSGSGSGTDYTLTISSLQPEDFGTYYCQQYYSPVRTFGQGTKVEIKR : 2.42e+09
1D2 SDR mutant HK54G (antibody, IgG1, V domains shown, also called X3 G) VH: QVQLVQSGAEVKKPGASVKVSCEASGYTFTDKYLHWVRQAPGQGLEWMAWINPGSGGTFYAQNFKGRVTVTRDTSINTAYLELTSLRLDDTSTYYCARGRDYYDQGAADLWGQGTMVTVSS VL: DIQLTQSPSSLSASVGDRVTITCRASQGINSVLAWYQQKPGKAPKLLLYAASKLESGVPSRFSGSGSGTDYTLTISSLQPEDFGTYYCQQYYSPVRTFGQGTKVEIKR : 2.89e+09
antibody 1D2 (antibody, V domains shown, also called 1D2-WT; WT) VH: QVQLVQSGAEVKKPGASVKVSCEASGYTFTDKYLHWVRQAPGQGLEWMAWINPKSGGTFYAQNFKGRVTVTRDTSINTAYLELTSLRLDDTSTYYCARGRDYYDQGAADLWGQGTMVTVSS VL: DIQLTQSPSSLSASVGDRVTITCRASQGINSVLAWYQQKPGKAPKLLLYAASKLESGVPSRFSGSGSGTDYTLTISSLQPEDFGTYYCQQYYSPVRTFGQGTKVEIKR : 1.01e+10

Consider the additional binder presented here.
Name the reported Ka value associated with the binder 1D2 SDR mutant Y103R/V32R (antibody, IgG1, V domains shown) VH: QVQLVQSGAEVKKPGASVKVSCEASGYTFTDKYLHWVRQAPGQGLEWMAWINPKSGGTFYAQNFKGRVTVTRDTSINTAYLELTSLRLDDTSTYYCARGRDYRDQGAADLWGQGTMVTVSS VL: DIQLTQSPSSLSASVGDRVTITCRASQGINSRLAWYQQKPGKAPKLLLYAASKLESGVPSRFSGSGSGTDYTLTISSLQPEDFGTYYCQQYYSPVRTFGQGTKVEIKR 4.14e+08
